experimental_readout: melting point

In the examples that follow, each entry is paired with its recorded melting point.
COc1ccc(C(=O)O)cc1N1CCNC1=O; 246 to 248 °C
COc1ccc(C(=O)C(C)Br)cc1 (stereo unspecified); 66 to 68 °C

Recorded melting point of Nc1ccnc2ccnn12 , please.
198 to 200 °C

Field request: melting point | item: O=[N+]([O-])c1cc(I)ccc1Cl
71 to 73 °C

Need melting point of O=C(CNC1CC1)NC1CC1 , thanks.
47 to 49 °C

----------
melting point reference

Oc1cccc(Oc2ccncc2)c1; 119 to 121 °C
Cc1ccccc1CNC(=O)C(C)Cl (stereo not drawn); 108 to 110 °C

Consider the molecule C#CCNC(=O)CC(=O)O and give its measured melting point.
64 to 66 °C

Record request: melting point value, item O=C(O)CCNC(=O)c1ccc2cn[nH]c2c1
234 to 236 °C

Recorded melting point for N#Cc1cnc2ccccc2c1Cl , please?
128 to 130 °C

Need melting point, item CCC(=O)N1CSCC1C(=O)O (stereo not drawn)
74 to 76 °C

For the molecule FC(F)(F)c1cccc(-c2ccc(Cl)nn2)c1 , what melting point is on record?
133 to 135 °C

Consider the molecule CC1CCCCN1S(=O)(=O)c1ccc(C(=O)O)cc1 (stereo not drawn) and give its measured melting point.
201 to 205 °C

----------
# melting point listing for each entry below

Previously resolved entries follow.
CC1=NN(c2cc(C)ccc2C)C(=O)C1; 164 to 166 °C
FC(F)(F)c1cccc2c(Cl)ncnc12; 144 to 146 °C

# evaluate next
So what's the measured melting point for this one? CSc1ccc2c(c1)CCCC2=O
74 to 76 °C

----------
Each entry below carries its recorded melting point.

O=C1Nc2ccccc2C1=NO; 242 to 244 °C
O=C1NC(=O)C2(CCOc3ccccc32)N1 (centres undefined); 120 to 122 °C
O=C(O)CCC(=O)c1ccc2ccccc2c1; 172 to 174 °C
O=C=Nc1ccc2c(c1)OCO2; 48 to 51 °C
CC(O)c1ccc2c(c1)Nc1ccccc1S2 (centres undefined); 149 to 151 °C
OC(CCl)CNCc1ccccc1 (centres undefined); 63 to 65 °C

// query melting point value for entry OCc1ncc(Br)s1
73 to 75 °C

What does the data say about its melting point? Entry: Cn1cncc1C#N
48 to 50 °C

Item under review: CN1CCC/C1=N/S(=O)(=O)c1ccc(N)cc1 . Reported melting point?
172 to 174 °C

----------
experimental_readout: melting point

Some molecules with known melting point results, for comparison:
NNC(=O)c1ccc2ccccc2n1; 133 to 135 °C
NCc1nnc2n1CC(C(F)(F)F)CC2 (stereo unspecified); 55 to 57 °C
CN(C)C(=O)c1ccc2c(c1)CCN2; 156 to 158 °C
Cc1cccc(Cc2cnc(N)s2)c1; 100 to 102 °C
CS(=O)(=O)N(c1ccc(N)cc1Br)S(C)(=O)=O; 179 to 181 °C

Given O=S(=O)(Cl)C1CCCCC1O (stereo unspecified) , state its recorded melting point.
49 to 51 °C

// query melting point value for entry NCC(=O)Nc1ccccc1[N+](=O)[O-]
81 to 83 °C

----------
Catalogue of compounds with associated melting point

COc1ccc(CNc2nnc(S)s2)cc1; 137 to 139 °C
CC(C)(C(=O)O)c1ccc(Br)cc1; 123 to 125 °C
CNCc1nnc[nH]1; 91 to 93 °C
CC(=O)c1c(C)[nH]c(N=Nc2cccc(C(=O)O)c2)c1C; 203 to 205 °C
CN(C)CCNS(=O)(=O)c1ccc(Cl)c([N+](=O)[O-])c1; 88 to 90 °C
O=C(O)C1(Br)CCCC1; 66 to 68 °C
COc1cc(N)ccc1S(N)(=O)=O; 241 to 243 °C
O=C(O)c1cccc(OCc2ccccc2OC(F)F)c1; 139 to 141 °C

Return reported melting point; argument: O=C(O)C1CCCN(S(=O)(=O)c2ccccc2)C1 (centres undefined)
121 to 123 °C

----------
Below, each entry is listed alongside its reported melting point.

Worked set:
Cc1ccc2c(n1)OCCN2; 109 to 111 °C
CC1CCC(N)(C(=O)O)CC1 (stereo not drawn); 200 to 202 °C
Nc1ccccc1OCC(=O)N1CCOCC1; 111 to 113 °C
CNC(C)c1ccc(S(N)(=O)=O)cc1 (stereo not drawn); 145 to 147 °C
O=C(O)c1cccc(CN2CCCC2=O)c1; 145 to 155 °C

Given the compound CNCc1ccc(OC)c(O)c1 , what is its reported melting point?
141 to 143 °C

Which value of melting point has been reported for Cc1nn(C)c2nc(C(C)C)cc(C(=O)O)c12 in the records?
211 to 213 °C

Sample O=C(Cc1ccccc1)C[N+](=O)[O-] — what was its melting point?
48 to 50 °C

----------
Each record here notes measured melting point.

Cc1cc(NC(=O)OCC(F)(F)F)n(C)n1; 100 to 102 °C

Returns the measured melting point for the input molecule. Input: CCOC(=O)c1nc2c(s1)NCCCC2
144 to 146 °C

Endpoint output: melting point of CN(C)S(=O)(=O)c1cccc(N=C=S)c1 . Value?
47 to 49 °C

Look at this molecule and give its reported melting point. O=c1[nH]c(CCl)nc2sc3c(c12)CCC3
230 to 238 °C

Please give the measured melting point for this molecule: Clc1csc(Cl)n1
42 to 46 °C

# get_value(readout='melting point', item= CNc1ccnc(C)c1 )
59 to 61 °C

----------
List of melting point values.

Cc1nsc(Nc2ccccc2)c1C#N; 172 to 174 °C
CC1CCC2(CC1)COC(=O)N2 (centres undefined); 126 to 128 °C
Cc1nc(CC(=O)NN)cs1; 114 to 116 °C
Cc1oc(-c2cccs2)nc1CC(=O)O; 185 to 187 °C
CC(=O)c1ccc(-n2c(C)c[nH]c2=O)cc1; 203 to 205 °C
NC(=O)c1ccc(S(=O)(=O)Cl)cc1; 188 to 190 °C
CC1(Br)CS(=O)(=O)CC1Br (centres undefined); 126 to 128 °C
O=C1NC2(CCN(Cc3ccccc3)CC2)CO1; 164 to 166 °C
CCOC(=O)c1cnc2c(cnn2C)c1Cl; 83 to 85 °C
CC1CCC(CC(=O)O)CC1 (centres undefined); 58 to 60 °C

Looking for the measured melting point of O=C(O)Cn1c(=O)n(C2=CCCCC2)c2ccccc21 , can you help?
145 to 147 °C

If you can, please state the reported melting point value of Cc1cccc(NS(=O)(=O)c2ccc(C)c(N)c2)c1 .
95 to 97 °C

Request the reported melting point associated with NS(=O)(=O)Cc1ccc(F)cc1
122 to 124 °C

Data request, read-out melting point, for Cc1ccc(C(C)(C)C(=O)O)cc1
76 to 78 °C

Cited source for all entries: a melting point compilation (Tetko et al.)
